# Tested on: murine L-5178 lymphoma cells transfected with the human MDR1 gene
# assay.summary: MDR reversal, rhodamine 123 fluorescence activity ratio
# conditions.used: compound 40 μg/ml, FAR >1 indicates MDR reversal
Measured FAR value 40 μg/ml, listed per entry.
# respond with the number and nothing more

* Cc1ccc(C=C2CNCC(=Cc3ccc(C)cc3)C2=O)cc1 [Compound 1d] | 4.03

Which FAR value 40 μg/ml is reported for this compound? Cc1ccc(C=C2CN(C(=O)c3ccc(OCCN4CCCCC4)cc3)CC(=Cc3ccc(C)cc3)C2=O)cc1.Cc1ccc(C=C2CN(C(=O)c3ccc(OCCN4CCCCC4)cc3)CC(=Cc3ccc(C)cc3)C2=O)cc1.Cl.Cl.O [Compound 5d]
146

Similarly, Cl.Cl.O.O.O.O=C1C(=Cc2ccc([N+](=O)[O-])cc2)CN(C(=O)c2ccc(OCCN3CCCCC3)cc2)CC1=Cc1ccc([N+](=O)[O-])cc1.O=C1C(=Cc2ccc([N+](=O)[O-])cc2)CN(C(=O)c2ccc(OCCN3CCCCC3)cc2)CC1=Cc1ccc([N+](=O)[O-])cc1 [Compound 5c] ?
51.5

Also CC[N+](C)(CC)CCOc1ccc(C(=O)N2CC(=Cc3ccc(C)cc3)C(=O)C(=Cc3ccc(C)cc3)C2)cc1.[I-] [Compound 7d] , if possible.
114

Another compound to check: CCN(CC)CCOc1ccc(C(=O)N2CC(=Cc3ccc(C)cc3)C(=O)C(=Cc3ccc(C)cc3)C2)cc1.Cl [Compound 4d]
66.6

What do you have for O=C1C(=Cc2ccc(Cl)cc2)CNCC1=Cc1ccc(Cl)cc1 [Compound 1b] ?
0.91

Next compound up: Cl.O=C1C(=Cc2ccc(Cl)cc2)CN(C(=O)c2ccc(OCCN3CCOCC3)cc2)CC1=Cc1ccc(Cl)cc1 [Compound 6b]
6.88
